# MEASUREMENT_DESCRIPTION: self-splicing fitness, log relative to wild type (ln ratio); higher = more splicing; Tetrahymena group I intron in knt gene, E. coli kanamycin selection, DiMSum; sequences stand for … in CUCUCU…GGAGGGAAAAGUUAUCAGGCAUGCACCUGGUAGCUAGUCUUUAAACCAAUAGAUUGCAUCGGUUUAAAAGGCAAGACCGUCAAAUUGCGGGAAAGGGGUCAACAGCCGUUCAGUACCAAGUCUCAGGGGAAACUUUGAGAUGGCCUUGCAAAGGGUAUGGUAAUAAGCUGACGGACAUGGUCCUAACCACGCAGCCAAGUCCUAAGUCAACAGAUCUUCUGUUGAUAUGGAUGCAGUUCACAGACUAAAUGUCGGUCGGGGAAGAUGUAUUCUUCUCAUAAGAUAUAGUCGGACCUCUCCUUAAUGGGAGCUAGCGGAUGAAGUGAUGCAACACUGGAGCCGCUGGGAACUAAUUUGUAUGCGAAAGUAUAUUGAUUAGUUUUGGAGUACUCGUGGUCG;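 further: selection with 25 µg/mL kanamycin versus none on LB agar overnight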
# TEST_CONTEXT: 30 °C
REPORTED_METRIC: self-splicing fitness (ln)
Give bare numbers.

ACCGAGCAAUAUUACGUAAU; -3.19
UAACAGCAAUAUUACGGCAG; -0.752
UGUUAGCAAUAUUACGUCCA; -0.514

For each of the items listed, what is its self-splicing fitness (ln)?
1. UAUAAGCAAUAUUACGAGGG
2. UGUUAGCAAUAUUACGGUGA
3. ACAGAGCAAUAUUACGUCCU
4. GUUAAGCAAUAUUACGAAAC

Response:
1. -3.42
2. -1.51
3. -1.35
4. -3

Query: Specify measured self-splicing fitness (ln) for AGAUAGCAAUAUUACGAGAU .
Response: -3.02
